For each entry below, report its Relative Binding Index (RBI) value.
tested on: receptor labeled by the radioiodinated analogue of 1 (4, [125I]-YLFQPQRF-NH2); neuropeptide FF receptor; assay: Competitive radioligand binding against 4 ([125I]Y8F-amide); conditions: mixture-based positional scanning; difference from averaged radioligand displacement of whole library (0); about 80 a.u. = 10-fold change in Ki
Peptide text beside a SMILES is read from it. * marks the point of attachment. Dansyl = CN(C)c1cccc2c(S(=O)(=O)*)cccc12
Write the number in a.u. without appending the unit.

Consider the molecule shown here: CN(C)c1cccc2c(S(=O)(=O)N[C@@H](CC(=O)O)C(=O)N[C@@H](CO)C(=O)N[C@@H](CCCNC(=N)N)C(N)=O)cccc12 [Dansyl-DSR-amide] (Dansyl-Asp-Ser-Arg-NH2) What is its recorded Relative Binding Index (RBI)?
15

Entry CN(C)c1cccc2c(S(=O)(=O)N[C@@H](Cc3ccccc3)C(=O)N[C@@H](CC(=O)O)C(=O)N[C@@H](CCCNC(=N)N)C(N)=O)cccc12 [Dansyl-FDR-amide] (Dansyl-Phe-Asp-Arg-NH2) has what Relative Binding Index (RBI)?
−9

What Relative Binding Index (RBI) value was documented for this molecule, CN(C)c1cccc2c(S(=O)(=O)N[C@@H](CC(N)=O)C(=O)NCC(=O)N[C@@H](CCCNC(=N)N)C(N)=O)cccc12 [Dansyl-NGR-amide] (Dansyl-Asn-Gly-Arg-NH2) ?
18
